Hey, just so you know, these numbers are from the supplement of paper PMC12667976.

B1: library; numbered along this chain (parent)
chain: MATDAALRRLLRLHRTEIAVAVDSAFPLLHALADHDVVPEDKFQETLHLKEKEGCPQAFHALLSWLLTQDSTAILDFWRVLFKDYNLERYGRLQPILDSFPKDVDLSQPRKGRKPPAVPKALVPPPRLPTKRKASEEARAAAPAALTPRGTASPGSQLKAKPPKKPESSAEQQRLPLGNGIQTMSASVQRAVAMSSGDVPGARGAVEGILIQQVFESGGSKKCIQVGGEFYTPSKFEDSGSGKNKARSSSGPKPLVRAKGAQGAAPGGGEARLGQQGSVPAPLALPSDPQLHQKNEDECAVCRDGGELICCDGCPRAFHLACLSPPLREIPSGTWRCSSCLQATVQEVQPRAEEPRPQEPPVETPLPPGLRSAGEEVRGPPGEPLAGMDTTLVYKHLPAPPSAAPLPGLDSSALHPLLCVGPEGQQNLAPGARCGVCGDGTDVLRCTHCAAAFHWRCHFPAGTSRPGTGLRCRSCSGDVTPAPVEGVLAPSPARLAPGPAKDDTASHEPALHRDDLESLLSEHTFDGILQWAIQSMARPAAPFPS

Variants of: B1
assay: AIRE transcriptional activation functional score (insulin promoter-GFP; nonsense median 0, synonymous median 1) (normalised score); higher = higher AIRE activity (more reporter activation)
recorded.conditions: with insulin promoter-GFP reporter in HEK293
assay.readout: AIRE transcriptional activation functional score
Just the number, please, no unit after it.

Some variants with recorded AIRE transcriptional activation functional score:
mutation.descriptor: L255M
recorded.measurement: -0.804
--
mutation.descriptor: E171L
recorded.measurement: 1.59

# evaluate next
Query: // query AIRE transcriptional activation functional score value for entry `C457P`
Result: 0.211
